target: Luciferin 4-monooxygenase (Photinus pyralis); assay: qHTS profiling assay for firefly luciferase inhibitor/activator using purifed enzyme and Km concentrations of substrates (counterscreen for miR-21 project); settings: purified FLuc, luminescence inhibition; series mostly up to 57.5 µM; further: nearly all actives have a fitted effect of over 55% in size; further: potency means the concentration at half of the fitted maximal effect
Out of some 360,000 compounds screened, about 25,000 (6.9%) were called active. Not shown: some 9% with an inconclusive outcome. Only a selection was taken, and actives are over-represented in it overall.
reportedProperty: Potency

C/C(Cc1ccccc1)=N\NC(=O)CNC(=O)c1ccc2c(c1)OCCO2	inactive
Cc1ccc(CNS(=O)(=O)c2ccc(-c3cc(C(F)(F)F)on3)s2)cc1	inactive
O=C(Nc1ccc(C(=O)N2CCCCC2)cc1)c1cccc([N+](=O)[O-])c1	inactive
O=C(c1ccc(Cl)c(S(=O)(=O)N2CCCCC2)c1)N1CCCCCC1	inactive
Cc1ccc(NC(=O)C2CC(=O)N(c3ccc4c(c3)OCCO4)C2)cc1S(=O)(=O)N1CCCCCC1 (configuration not stated)	inactive

Could I get Potency for every one of these entries?
1. COc1cccc(Nc2ncccc2C(=O)O)c1
2. Cc1ccc(C(=O)Nc2ccc3c(c2)OCO3)cc1S(=O)(=O)N1CCCCC1
3. Cn1nc(-c2ccccc2)c(-c2ccccc2)c(C(=O)Nc2ccc(S(N)(=O)=O)cc2)c1=O
4. COCc1c(C(=O)OCC(=O)Nc2ccc(OC(F)F)cc2)oc2ccccc12
5. O=C(CSCc1cnn(-c2ccccc2)c1-n1cccc1)NCc1ccc(Cl)cc1
6. CCC(C)NC(=O)c1c(N)n(/N=C/c2cccs2)c2nc3ccccc3nc12 (configuration not stated)

Result block:
["19 µM (active)", "16.9 µM (active)", "inactive", "inactive", "inactive", "3.01 µM (active)"]

Could I get Potency for every one of these entries?
1. O=C(Nc1ccc(NC(=O)c2ccco2)c(Cl)c1)c1cccc([N+](=O)[O-])c1
2. C[N+]1(CCNC(=O)/C=N/O)CCCCC1
3. Cc1cccc(NC(=O)c2nnn(CC(=O)Nc3ccc(C(C)C)cc3)c2N)c1C

Result block:
["inactive", "inactive", "inactive"]

Could I get Potency for every one of these entries?
1. Clc1ccccc1CSc1nncn2c1cc1occc12
2. O=C(c1ccco1)n1nc(-c2ccc(Cl)cc2)nc1NCc1ccccc1
3. CCCCCCOC(=O)NCC(O)c1ccccc1 (configuration not stated)
4. O=C(OCc1cc(=O)n2ccsc2n1)C1(c2ccc(Cl)cc2)CC1
5. CCCCOC(=O)Nc1nnc(CC(=O)NCc2ccccc2)s1
6. COCCn1c(SCC(=O)Nc2cc(Cl)ccc2OC)nc2c(c1=O)SC(C)C2 (configuration not stated)

Result block:
["inactive", "inactive", "12 µM (active)", "inactive", "inactive", "inactive"]

Could I get Potency for every one of these entries?
1. O=C(CN(Cc1ccccc1)C(=O)c1ccc2c(c1)OCCO2)NCc1ccc2c(c1)OCO2
2. CCOc1ccc(C(=O)NCC(=O)N2CCCCCCC2)cc1OCC

Result block:
1. inactive
2. inactive

* * *

Biological target: Luciferin 4-monooxygenase (Photinus pyralis) (UniProt P08659)
Sequence (P08659 whole entry, looked up): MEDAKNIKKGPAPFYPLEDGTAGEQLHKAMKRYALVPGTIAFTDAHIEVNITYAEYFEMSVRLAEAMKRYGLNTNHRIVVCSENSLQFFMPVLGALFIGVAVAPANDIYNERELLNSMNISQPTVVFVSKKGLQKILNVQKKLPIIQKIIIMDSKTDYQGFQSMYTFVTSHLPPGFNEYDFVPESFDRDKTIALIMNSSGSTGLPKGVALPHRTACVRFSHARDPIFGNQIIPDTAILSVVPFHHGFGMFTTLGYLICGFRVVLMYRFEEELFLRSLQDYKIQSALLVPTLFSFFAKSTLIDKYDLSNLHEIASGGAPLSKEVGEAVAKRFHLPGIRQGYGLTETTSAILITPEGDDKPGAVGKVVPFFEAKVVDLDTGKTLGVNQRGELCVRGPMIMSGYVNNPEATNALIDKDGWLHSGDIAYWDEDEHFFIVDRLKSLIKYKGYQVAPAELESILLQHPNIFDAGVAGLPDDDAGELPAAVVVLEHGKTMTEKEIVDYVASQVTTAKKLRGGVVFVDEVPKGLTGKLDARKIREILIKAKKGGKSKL
Experiment: qHTS profiling assay for firefly luciferase inhibitor/activator using purifed enzyme and Km concentrations of substrates (counterscreen for miR-21 project); further: nearly all actives have a fitted effect of over 55% in size; further: potency means the concentration at half of the fitted maximal effect
Settings: purified FLuc, luminescence inhibition; series mostly up to 57.5 µM
From the text: MLPCN Grant: 1 R21 NS059478-01 (miR-21 grant) Assay Provider: NCGC NCGC Assay Overview: Firefly (Photinus pyralis) luciferase is one of the most commonly used transcriptional reporters for a number of reasons. […] Although light produced in a bioluminescence reaction is of lower intensity than that produced during fluorescence emission, this is offset by little to no background light inherent to luminescent assays. […]
In all, about 360,000 compounds went through this assay and about 25,000 (6.9%) were called active. Another 9% or so got no clear call; they are omitted. This is one part of a sample in which actives are shown more often than they occur.
reportedProperty: Potency

These recorded examples may help you get a feel for the data.
Cc1noc(NS(=O)(=O)c2ccc(NC(=O)c3oc4ccc(F)cc4c3C)cc2)c1C	15.1 µM (active)
Cc1cc(C)nc(NS(=O)(=O)c2ccc(N/C=C\C(=O)c3cccs3)cc2)n1	inactive
Cc1ccc(C(=O)COC(=O)C(Cc2c[nH]c3ccccc23)NC(=O)c2ccc(Br)cc2)cc1 (stereo not given)	inactive
CCc1ccc(-n2nc(C)c3c(C)cc(=O)n(CC(=O)Nc4ccc(F)cc4C)c32)cc1	inactive
Cc1ccnc(NS(=O)(=O)c2ccc(NC(=O)c3oc4ccc(F)cc4c3C)cc2)n1	26.9 µM (active)
CC(=O)Nc1cccc(-c2nc3ccccc3s2)c1C	6.01 µM (active)

Could I get Potency for every one of these entries?
1. O=C(Nc1ccccc1Cl)N1CCC(CN2CCCC2)CC1
2. CCc1ccc(CNC(=O)C2CCN(c3nn4cc(-c5ccc(F)cc5)nc4s3)CC2)cc1
3. Cc1onc(-c2ccccc2Cl)c1C(=O)OCc1nnc(-c2ccccc2)o1
4. Cc1ccnc(NS(=O)(=O)c2ccc(NC(=O)c3ccc(S(=O)(=O)N(C)C)cc3)cc2)n1

Result block:
inactive
inactive
inactive
inactive
